Attribution: patent US9877962B2

experiment: Pharmacokinetic parameters in mice; format: in vivo, balb/c mice; conditions: mouse; balb/c mice, intravenous route, 10 mg/kg, plasma
Measured Parameter: AUC(0-inf) (ng·h/mL)

Molecule	Numeric Readout
Cc1cc(Oc2ccccc2)ccc1N(C(=O)CCl)C(C(=O)N1CCN[C@@H](C)C1)c1cccs1.Cl (stereo partly drawn)	2060

P = Cc1cc(Oc2ccccc2)ccc1N(C(=O)CCl)C(C(=O)N1CCNCC1)c1cccs1.Cl (stereo not drawn) [reference compound]
Q = Cc1cc(Oc2ccccc2)ccc1N(C(=O)CCl)C(C(=O)N1CC(C)NC(C)C1)c1cccs1.Cl (stereo not drawn)
stdin: Kindly identify which of P and Q has the larger recorded AUC(0-inf) value. To answer, give the label that identifies your chosen option.
stdout: Q

###

test: Pharmacokinetic parameters in mice; type: in vivo, balb/c mice; conditions: mouse; balb/c mice, intravenous route, 10 mg/kg, plasma; read-out: t½ (converted)
Measured Parameter: half-life (h)

Compound	Units	half-life
Cc1cc(Oc2ccccc2)ccc1N(C(=O)CCl)C(C(=O)N1CC(C)NC(C)C1)c1cccs1.Cl (stereo not drawn)	h	2.64

I = Cc1cc(Oc2ccccc2)ccc1N(C(=O)CCl)C(C(=O)N1CCN[C@@H](C)C1)c1cccs1.Cl (stereo partly drawn)
II = Cc1cc(Oc2ccccc2)ccc1N(C(=O)CCl)C(C(=O)N1CCNCC1)c1cccs1.Cl (stereo not drawn) [reference compound]
stdin: Kindly identify which of I and II has the larger recorded half-life value. To answer, give the label that identifies your chosen option.
stdout: I

###

Below, each entry is listed alongside its reported IC50.
test system: HT29; assay: Cytotoxicity test (ViaLight Plus cell proliferation) on HT29; type: cell-based, human; conditions: Homo sapiens, HT-29; 72 hours' incubation, cell viability; read-out: EC50 HT29
Provide the reading as a plain figure in nM.

// known answers, use as guide
Compound	System Name	Units	IC50
CC(C)[C@H]1CN(C(=O)C(c2ccc(F)cc2)N(C(=O)CCl)c2ccc(Oc3ccccc3)cc2)CCN1 (single isomer, unassigned)	HT29	nM	1
Cc1cc(Oc2ccccc2)ccc1N(C(=O)CCl)C(C(=O)N1CCN[C@@H](C)C1)c1cccs1 (single isomer, unassigned)	HT29	nM	10

Then this compound:
GET /value?item= Cc1cc(Oc2ccccc2)ccc1N(C(=O)CCl)C(C(=O)N1CCN[C@@H](C(C)C)C1)c1ccc(F)cc1 (single isomer, unassigned) &field=IC50 returns 8

###

assay: Pharmacokinetic parameters in mice; format: in vivo, balb/c mice; settings: mouse; balb/c mice, intravenous route, 10 mg/kg, plasma
Measured Parameter: AUC(0-t) (ng·h/mL)

Compound	Units	Numeric Readout
Cc1cc(Oc2ccccc2)ccc1N(C(=O)CCl)C(C(=O)N1CCN[C@@H](C)C1)c1cccs1.Cl (stereo partly drawn)	ng·h/mL	1680

A = Cc1cc(Oc2ccccc2)ccc1N(C(=O)CCl)C(C(=O)N1CCNCC1)c1cccs1.Cl (stereo not drawn) [reference compound]
B = Cc1cc(Oc2ccccc2)ccc1N(C(=O)CCl)C(C(=O)N1CC(C)NC(C)C1)c1cccs1.Cl (stereo not drawn)
stdin: Looking at recorded values for AUC(0-t), does A or B come in lower? To answer, give the label that identifies your chosen option.
stdout: A

###

test system: HL-60; test: Cytotoxicity test (ViaLight Plus cell proliferation) on HL-60; type: cell-based, human; settings: 72 hours' incubation, cell viability vs 0.5% DMSO control
Measured Parameter: EC50 (µM)
Provide the reading as a plain figure in µM.

Compound	System Name	EC50 / µM
C[C@@H]1CN(C(=O)[C@H](c2cccs2)N(C(=O)CCl)c2ccc(Oc3ccccc3)cc2)C[C@H](C)N1 [Example I-44]	HL-60	0.215
CC[C@@H]1CN(C(=O)C(c2ccc(F)cc2)N(C(=O)CCl)c2ccc(Oc3ccccc3)cc2)CCN1C(=O)OC(C)(C)C (single isomer, unassigned; dia1) [I-20 dia1]	HL-60	0.196
Cc1cc(OC(C)C)ccc1N(C(=O)CCl)C(C(=O)N1CCN[C@@H](C(C)C)C1)c1ccc(F)cc1 (single isomer, unassigned; dia1) [I-26 dia1]	HL-60	2.45

GET /value?item= CC[C@H]1CN(C(=O)C(c2ccc(F)cc2)N(C(=O)CCl)c2ccc(Oc3ccccc3)cc2C)CCN1 (single isomer, unassigned; dia1) [I-17 dia1] &field=EC50 returns 2.31

GET /value?item= CC(C)[C@H]1CN(C(=O)C(c2ccc(F)cc2)N(C(=O)CCl)c2ccc(Oc3ccccc3)cc2)CCN1 (single isomer, unassigned) [I-3 dia1] &field=EC50 returns 1.31

GET /value?item= CC[C@H]1CN(C(=O)C(c2ccc(F)cc2)N(C(=O)CCl)c2ccc(Oc3ccccc3)cc2C)CCN1 (single isomer, unassigned; dia2) [I-17 dia2] &field=EC50 returns 1.6

GET /value?item= Cc1cc(Oc2ccccc2)ccc1N(C(=O)CCl)C(C(=O)N1CCN[C@H](C(C)C)C1)c1ccc(F)cc1 (single isomer, unassigned) [I-8 dia2] &field=EC50 returns 1.74

GET /value?item= CC(C)C[C@H]1CN(C(=O)C(c2cccs2)N(C(=O)CCl)c2ccc(Oc3ccccc3)cc2)CCN1 (single isomer, unassigned; dia1) [I-51 dia1] &field=EC50 returns 0.145
